ENDPOINT_NAME: melting point

[[record]]
molecule = "Cc1cc(N2CC=C(C(=O)OC(C)C)CC2)c2cccc(Br)c2n1"
value_observed = "130 to 131 °C"

[[record]]
molecule = "C[C@H]1CN(C(=O)OC(C)(C)C)S(=O)(=O)O1"
value_observed = "123 to 125 °C"

[[record]]
molecule = "CCc1ccc(S(N)(=O)=O)cc1"
value_observed = "104 to 108 °C"

[[record]]
molecule = "CC(=O)OCC1OC(OC2C(COC(C)=O)OC(OCCBr)C(OC(C)=O)C2OC(C)=O)C(OC(C)=O)C(OC(C)=O)C1OC(C)=O (centres undefined)"
value_observed = "151 to 152 °C"

[[record]]
molecule = "O=C(O)CCc1ccc(SCCC(c2ccccc2)(c2ccccc2)c2ccccc2)cc1"
value_observed = "51 to 53 °C"

[[record]]
molecule = "COc1cc2c(cc1-c1nc3cc(Cl)ccc3o1)oc1ccccc12"
value_observed = "191 to 193 °C"

[[record]]
molecule = "CCOC(=O)CCC(=O)OCC(=O)c1ccc(Cl)cc1"
value_observed = "50 to 51 °C"

[[record]]
molecule = "CN(Cc1ccccc1)c1c(-c2ccc(S(C)(=O)=O)cc2)cnn(-c2cccc(Cl)c2)c1=O"
value_observed = "60 to 85 °C"

[[record]]
molecule = "O=c1ccn(-c2cccc(C(F)(F)F)c2)nc1-n1ccnc1-c1ccccc1"
value_observed = "204 to 205 °C"


###

Listed next: entries and their corresponding melting point.
ENDPOINT_NAME: melting point

[[record]]
compound = "Cc1cc2nccc(-c3cccnc3)n2n1"
value_observed = "182 to 184 °C"

[[record]]
compound = "Cc1noc(NC(=O)c2c(O)ccc3cc(-c4cccc(O)c4)ccc23)c1C"
value_observed = "108 °C"

[[record]]
compound = "CCn1cc(C(=O)O)c(=O)c2cc(F)c(N3CCN(c4ccccc4OC)CC3)c(OC(F)F)c21"
value_observed = "219 to 222 °C"

[[record]]
compound = "CCOC(CBr)(OCC)C(=O)CBr"
value_observed = "40 to 41.5 °C"

[[record]]
compound = "O=C1NS(=O)(=O)c2cccc(O)c21"
value_observed = "228 °C"

[[record]]
compound = "Cn1c(-c2ccc(C(=N)N)cc2)nc2cc(C(=O)NCCC(=O)O)ccc21"
value_observed = "247 to 249 °C"

[[record]]
compound = "CCSc1cc(C)nc(SCC)c1NC(=O)CN1CCN(CCSc2nc3ccc(COC)c(COC)c3o2)CC1"
value_observed = "118 to 120 °C"

[[record]]
compound = "O=C(Nc1ccc(F)cc1)c1ccccc1Cl"
value_observed = "93.3 to 96.2 °C"

[[record]]
compound = "COc1ccc2[nH]c(SCc3nccc(N4CCCC4)n3)nc2c1"
value_observed = "199 to 202 °C"

[[record]]
compound = "OC(Cn1cncn1)(c1ccc(F)cc1)C(F)(F)C(F)(F)C(F)(F)F (stereo not given)"
value_observed = "126 to 127 °C"

[[record]]
compound = "O=C1C=C2CCCCC2N1c1ccc(O)c(Cl)c1 (stereo not given)"
value_observed = "216 °C"

[[record]]
compound = "CSc1ccc(-c2cc(C(F)F)nn2-c2ccc(C(C)=O)cc2)cc1"
value_observed = "143 to 145 °C"

[[record]]
compound = "O=C1c2ccccc2C(=O)N1CC(=O)N1c2ccccc2N(Cc2cccc([N+](=O)[O-])c2)C(=O)[C@H]2CCC[C@H]21 (relative stereo)"
value_observed = "250 to 252 °C"

[[record]]
compound = "Cc1cc(C)nc(NC(N)=Nc2ccc(Cl)cc2)n1"
value_observed = "203 °C"

[[record]]
compound = "NS(=O)(=O)c1cccc(-c2cc(-c3nc(-c4ccc(C(F)(F)F)nc4)cc(C(F)(F)F)n3)ccn2)c1"
value_observed = "258 °C"

[[record]]
compound = "COc1cc2c(cc1O)CCN(CC(=O)c1ccc(OC)c(OC)c1)C2"
value_observed = "149 to 150 °C"

[[record]]
compound = "COCC(=O)Oc1cc(-n2c(=O)cc(C(F)(F)F)n(C)c2=O)c(F)cc1Cl"
value_observed = "101 to 103 °C"

[[record]]
compound = "CC(C)N(Cc1coc(-c2ncn3c2CN(C)C(=O)c2c(Cl)cccc2-3)n1)C(C)C"
value_observed = "164 to 166 °C"

[[record]]
compound = "CS(=O)(=O)c1cccc(NC(=O)c2cnn3c(C4CC4)cc(-c4ccc(C(F)(F)F)cc4)nc23)c1"
value_observed = "231 to 234 °C"

[[record]]
compound = "CN(C)C(=O)c1cc2n(c1)CCc1ccccc1C2=O"
value_observed = "148 to 150 °C"


###

Listed next: entries and their corresponding melting point.
ENDPOINT_NAME: melting point

[[record]]
compound = "COc1cc(OCCN2CCOCC2)c(C=CC(=O)c2ccc(C(N)=O)cc2)cc1-c1cccs1"
endpoint_name = "melting point"
value_observed = "183 to 184 °C"

[[record]]
compound = "COC(=O)c1cccc(C(=O)c2cn(CC(=O)N(C)CCc3ccccc3)c3ccc(OCc4ccccc4)cc23)c1"
endpoint_name = "melting point"
value_observed = "224 to 230 °C"

[[record]]
compound = "Cc1ccc(S(=O)(=O)C(CC(=O)C(C)(C)C)c2ccc(Cl)cc2)cc1 (stereo unspecified)"
endpoint_name = "melting point"
value_observed = "170 to 171 °C"

[[record]]
compound = "OCC1OC(n2c(Cl)nc3cc(Br)c(Cl)cc32)C(O)C1O (stereo unspecified)"
endpoint_name = "melting point"
value_observed = "140 to 142 °C"

[[record]]
compound = "CC(CCc1ccccc1)NC(CO)C(O)c1ccc(S(C)(=O)=O)cc1 (stereo unspecified)"
endpoint_name = "melting point"
value_observed = "120 to 122 °C"

[[record]]
compound = "CCCc1c(OCCCCCCCCOc2ccc(C(=O)c3cccc(C(=O)O)c3)cc2CCC(=O)O)ccc2c1OCCC2=O"
endpoint_name = "melting point"
value_observed = "112 to 117 °C"

[[record]]
compound = "O=c1cccccc1N1CCN(CCO)CC1"
endpoint_name = "melting point"
value_observed = "85 to 86 °C"

[[record]]
compound = "COC(=O)c1cscc1NC(=O)NCCCCBr"
endpoint_name = "melting point"
value_observed = "85 to 86 °C"

[[record]]
compound = "Cc1ccc(C2c3c(C)c(-n4cc5cc6c(cc5c4)OCO6)c(C)c(C)c3OC2(C)C)cc1 (stereo unspecified)"
endpoint_name = "melting point"
value_observed = "236 to 242 °C"

[[record]]
compound = "CCn1cc(C(=O)O)c(=O)c2cc(F)c(N3CCN(C)C(COC(C)C)C3)cc21 (stereo unspecified)"
endpoint_name = "melting point"
value_observed = "184 to 186 °C"

[[record]]
compound = "ICc1nc(-c2ccc3c(c2)OCO3)c2cc3c(cc2n1)OCO3"
endpoint_name = "melting point"
value_observed = "155 to 160 °C"

[[record]]
compound = "CC1(C)COP(=O)(O)OC1c1cccc2ccccc12 (stereo unspecified)"
endpoint_name = "melting point"
value_observed = "216 to 217 °C"

[[record]]
compound = "CCNC(=O)C(C)(C)N=NC(C)(C)C(=O)NCC"
endpoint_name = "melting point"
value_observed = "98 °C"

[[record]]
compound = "CCN(CC)CCC(=O)NC1(c2ccccc2Cl)C(=O)Nc2ccc(Cl)cc21 (stereo unspecified)"
endpoint_name = "melting point"
value_observed = "176 to 178 °C"

[[record]]
compound = "Brc1ccc(N2CCCN(c3ccc(Br)cn3)CC2)nc1"
endpoint_name = "melting point"
value_observed = "178 to 181 °C"

[[record]]
compound = "Cc1cc(Br)c(N)cc1Cl"
endpoint_name = "melting point"
value_observed = "90 °C"

[[record]]
compound = "COc1ccc2c(c1)CCC1C2CCC2(C)C(=NN(C)C)C(C)CC12 (stereo unspecified)"
endpoint_name = "melting point"
value_observed = "122 to 124 °C"

[[record]]
compound = "C=C[C@@H](C[C@H](O)[C@H](CC1CCCCC1)NC(=O)[C@H](Cc1c[nH]cn1)NC(=O)[C@@H](CC(=O)N1CCC(C(=O)O)CC1)Cc1ccccc1)C(C)C"
endpoint_name = "melting point"
value_observed = "169 °C"

[[record]]
compound = "OC1CSC(Oc2cncc(-c3ncccn3)c2)C(O)C1O (stereo unspecified)"
endpoint_name = "melting point"
value_observed = "201 °C"

[[record]]
compound = "CC1NC(=O)NN=C1c1ccc(Cl)cc1 (stereo unspecified)"
endpoint_name = "melting point"
value_observed = "221 to 222 °C"

[[record]]
compound = "c1ccc(COc2cccc3c2NCC3)cc1"
endpoint_name = "melting point"
value_observed = "58 to 60 °C"

[[record]]
compound = "O=C(NCCCc1ccncc1)N1CCOCC1"
endpoint_name = "melting point"
value_observed = "94 to 98 °C"

[[record]]
compound = "CCOCc1ncc[nH]1"
endpoint_name = "melting point"
value_observed = "205 to 206 °C"

[[record]]
compound = "CCOC(=O)C(Cc1ccc(C(C(N)=O)C(C)c2ccccc2N2CCCCC2)cc1)C(=O)OCC (stereo unspecified)"
endpoint_name = "melting point"
value_observed = "123 to 125 °C"

[[record]]
compound = "CCOC(=O)C=Cc1ccc(OCCCCOCc2ccccc2)nc1NC(=O)C(C)(C)C"
endpoint_name = "melting point"
value_observed = "75 to 76 °C"

[[record]]
compound = "CCOC(=O)c1cc2cc(C3=C(c4cnc5[nH]cc(C(=O)C(C)(C)C)c5n4)CCC3)ccc2[nH]1"
endpoint_name = "melting point"
value_observed = "278 to 280 °C"

[[record]]
compound = "Cc1cnnc(-c2cccc(C(F)(F)F)c2)c1"
endpoint_name = "melting point"
value_observed = "114 to 116 °C"

[[record]]
compound = "COC(=O)c1cc(N2C(=O)C(=O)N(C(C)C)C2=O)c(F)cc1Cl"
endpoint_name = "melting point"
value_observed = "106 to 108 °C"

[[record]]
compound = "CC12CCC(=O)C=C1CCC1C2=CCC2(C)C(=C(Cl)C(Cl)S(=O)c3ccccc3)CCC12 (stereo unspecified)"
endpoint_name = "melting point"
value_observed = "133 to 134 °C"

[[record]]
compound = "Cc1ccc(C(C)(C)CCCCC(=O)O)cc1C"
endpoint_name = "melting point"
value_observed = "71 to 73 °C"

[[record]]
compound = "CC1(C)c2ccccc2C(C)(C)C1(S)CC#N"
endpoint_name = "melting point"
value_observed = "113 to 114 °C"

[[record]]
compound = "CC(=O)Nc1ccc(C(=O)CBr)cc1F"
endpoint_name = "melting point"
value_observed = "184 °C"

[[record]]
compound = "C#Cc1ccc(CO[C@@H]2COc3nc([N+](=O)[O-])cn3C2)nc1"
endpoint_name = "melting point"
value_observed = "135 to 136 °C"

[[record]]
compound = "CC(C)Cc1nn(C)c(=O)c2c(SCCCO)c(Cc3ccccc3)sc12"
endpoint_name = "melting point"
value_observed = "60 to 65 °C"

[[record]]
compound = "O=C1c2ccccc2C(O)N1c1ccc2ncccc2n1 (stereo unspecified)"
endpoint_name = "melting point"
value_observed = "208 °C"

[[record]]
compound = "O=C1CC(O)c2ccccc21 (stereo unspecified)"
endpoint_name = "melting point"
value_observed = "182 to 187 °C"

[[record]]
compound = "Fc1ccc(C2OC3(CCN(Cc4ccccc4)CC3)N3CCCCC23)cc1 (stereo unspecified)"
endpoint_name = "melting point"
value_observed = "158 to 159 °C"

[[record]]
compound = "CNc1cc(OC)c(-c2nc(C)c(-c3cccnc3)[nH]2)cc1Cl"
endpoint_name = "melting point"
value_observed = "205 to 206 °C"

[[record]]
compound = "CC(C)(C)c1cc(CCC(=O)O)cc2nc(-c3ccc(-c4nc5cc(CCC(=O)O)cc(C(C)(C)C)c5o4)s3)oc12"
endpoint_name = "melting point"
value_observed = "247 to 248 °C"

[[record]]
compound = "O=C(Nc1cc([N+](=O)[O-])cc([N+](=O)[O-])c1)C1CC1"
endpoint_name = "melting point"
value_observed = "147 to 149 °C"

[[record]]
compound = "Nc1nc(SC2CCCC2)c2ncn(C3C=CC(CO)C3)c2n1 (stereo unspecified)"
endpoint_name = "melting point"
value_observed = "167 to 169 °C"

